# EXPERIMENTAL PARAMETERS: buffer; pH 7.4; 200.0 µM
MEASURE NAME: solubility kinetic

// below: answered molecules
Cc1nc2ccccc2c2c1C(=O)N(c1cccc(C(=O)O)c1)C2=O : > 49.8 µg/mL
FC(F)(F)c1cnc(COc2cc(Cl)cc(Cl)c2)c(Cl)c1 : < 0.8 µg/mL
O=C(NCCc1ccccc1)C(=O)Nc1ccc2c(c1)OCCO2 : < 0.3 µg/mL

Please fill in: solubility kinetic reported for CN(C(=O)CNc1ccccc1Cl)C1CCS(=O)(=O)C1 (stereo not drawn) = > 47.5 µg/mL

Please fill in: solubility kinetic reported for O=C(Nc1ccc(-c2ccc([N+](=O)[O-])cc2)cc1)c1ccccc1F = < 0.4 µg/mL

Please fill in: solubility kinetic reported for Cc1cnc(NS(=O)(=O)c2ccccc2)c(Br)c1 = > 49.1 µg/mL

Please fill in: solubility kinetic reported for O=C(NCCC(=O)N1CCCCCCC1)c1ccc(Cl)cc1 = > 48.4 µg/mL

Please fill in: solubility kinetic reported for Cc1ccccc1C(=O)NCC(=O)Nc1ccccc1C(F)(F)F = > 50.4 µg/mL

Please fill in: solubility kinetic reported for CCCCC(=O)Nc1ccccc1CC = > 30.8 µg/mL

Please fill in: solubility kinetic reported for Br.c1ccc(NC2=NCCCS2)cc1 = > 41 µg/mL

Please fill in: solubility kinetic reported for Cc1onc(-c2ccccc2Cl)c1C(=O)OCC(=O)N1CCC(C)CC1 = > 56.5 µg/mL

Please fill in: solubility kinetic reported for S=C1NCN(Cc2cccnc2)CN1 = > 31.2 µg/mL

Please fill in: solubility kinetic reported for CC1CCCN(C(=O)c2cc(-c3ccco3)nc3ccccc23)C1 (stereo not drawn) = > 48.1 µg/mL

---

# EXPERIMENTAL PARAMETERS: buffer; pH 7.4; 200.0 µM
// label = Condition met if solubility kinetic is not less than 10 µg/mL, otherwise Condition not met

Solved entries:
COc1ccc2oc(=O)c(C(=O)NCc3ccc(C)cc3)cc2c1 : Condition not met
CCC(C)NC(=O)c1ccc(NC(=O)C2=C(C)OCCS2)cc1 (configuration not stated) : Condition met
COc1ccccc1C1(O)C(=O)Nc2ccc(C)cc21 (configuration not stated) : Condition met
O=C(COc1ccccc1[N+](=O)[O-])Nc1cc(Cl)ccc1C(=O)O : Condition met

Task: Is it the case that O=C1CNC(=S)N1CCCc1ccccc1 has solubility kinetic reaching or exceeding 10 µg/mL?
Output: Condition met

Task: Is it the case that O=C(CN1CCCC1)N1CCN(c2ccccc2)CC1 has solubility kinetic reaching or exceeding 10 µg/mL?
Output: Condition met

Task: Is it the case that O=C1Nc2ccccc2Sc2ccccc21 has solubility kinetic reaching or exceeding 10 µg/mL?
Output: Condition not met

Task: Is it the case that O=C(Nc1ccc(SC(F)F)cc1)c1ccccc1F has solubility kinetic reaching or exceeding 10 µg/mL?
Output: Condition not met

Task: Is it the case that Cc1ccc(S(=O)(=O)NC(Cc2ccccc2)C(=O)O)cc1 (configuration not stated) has solubility kinetic reaching or exceeding 10 µg/mL?
Output: Condition met

Task: Is it the case that CC(C)c1ccc(/C=C2\NC(=O)NC2=O)cc1 has solubility kinetic reaching or exceeding 10 µg/mL?
Output: Condition met

Task: Is it the case that CC(Oc1ccccc1)C(=O)N1CCN=C1SCc1cccc(F)c1 (configuration not stated) has solubility kinetic reaching or exceeding 10 µg/mL?
Output: Condition met

Task: Is it the case that CN1C(=O)/C(=C/c2coc3ccc(O)cc3c2=O)SC1=S has solubility kinetic reaching or exceeding 10 µg/mL?
Output: Condition not met

Task: Is it the case that O=C(O)/C=C/C(=O)NCCC(c1ccccc1)c1ccccc1 has solubility kinetic reaching or exceeding 10 µg/mL?
Output: Condition met

Task: Is it the case that O=C(COC(=O)c1ccc(S(=O)(=O)N2CCCCC2)cc1)NCc1ccccc1 has solubility kinetic reaching or exceeding 10 µg/mL?
Output: Condition not met

Task: Is it the case that Cc1ccc(C(=O)NCC(=O)Nc2ccc(F)c(F)c2F)cc1 has solubility kinetic reaching or exceeding 10 µg/mL?
Output: Condition not met

---

# EXPERIMENTAL PARAMETERS: buffer; pH 7.4; 200.0 µM
Reported solubility kinetic values are given for each entry in this list.

// below: answered compounds
CC(C)CC1(C)NC(=O)N(CC(=O)Nc2ccc3c(c2)CCC3)C1=O (stereo unspecified) : > 51.5 µg/mL
CC(C)S(=O)(=O)c1csc(NC(=O)Nc2cccc([N+](=O)[O-])c2)c1Cl : < 0.3 µg/mL
CC#CC[N+](C)(C)CCCCCCCCCC.[Br-] : > 47.8 µg/mL

Please fill in: solubility kinetic reported for CC(C)CN(C(=O)CSc1nncn1C)C1CCS(=O)(=O)C1 (stereo unspecified) = > 52 µg/mL

Please fill in: solubility kinetic reported for O=C(NC1CC1)c1ccc(N2CCCCC2)c([N+](=O)[O-])c1 = > 43.4 µg/mL

Please fill in: solubility kinetic reported for COc1cc(C(=O)NCC(=O)N2CCN(S(=O)(=O)c3ccccc3C(F)(F)F)CC2)cc(OC)c1OC = > 81.8 µg/mL

---

# EXPERIMENTAL PARAMETERS: buffer; pH 7.4; 200.0 µM
MEASURE NAME: solubility kinetic

CCOC(=O)c1c(C)[nH]c(C)c1C(=O)COC(=O)c1cccnc1OCC : > 56.2 µg/mL
CC(=O)Cn1c(CN2CCCCC2)nc2ccccc2c1=O : > 44.9 µg/mL
CCN(CC)C(=O)c1sc(NC(=O)C(C)C)c(C#N)c1C : > 46.1 µg/mL
COc1ccccc1CNC(=O)CCc1ccccc1 : > 40.4 µg/mL
Oc1ccccc1CNc1nccs1 : > 30.9 µg/mL

Please fill in: solubility kinetic reported for CC1CCCCC1Nc1ncnc2sccc12 (stereo unspecified) = > 37.1 µg/mL

---

# EXPERIMENTAL PARAMETERS: buffer; pH 7.4; 200.0 µM
Reported solubility kinetic values are given for each entry in this list.

// below: answered compounds
COC(=O)C(Cc1ccccc1)NC(=O)CCc1c[nH]c2ccccc12 (centres undefined) : > 52.6 µg/mL
O=c1c2ccccc2nc(-c2ccccc2Cl)n1-c1ccc(O)cc1 : > 52.3 µg/mL
Nc1cccc(P(=O)(c2ccccc2)c2ccccc2)c1 : > 44 µg/mL

Please fill in: solubility kinetic reported for COCCNC(=O)COC(=O)C1=Cc2ccccc2OC1 = > 43.7 µg/mL

Please fill in: solubility kinetic reported for c1cncc(-c2noc(-c3ccc4ccccc4c3)n2)c1 = < 0.2 µg/mL

Please fill in: solubility kinetic reported for CCOC(=O)N1CCN(C(=O)COC(=O)c2ccc(Cl)nc2)CC1 = > 53.4 µg/mL

---

# EXPERIMENTAL PARAMETERS: buffer; pH 7.4; 200.0 µM
MEASURE NAME: solubility kinetic (mg/mL)
Just the number please, in mg/mL, no unit attached.

// below: answered compounds
CCOc1cccc2sc(Cl)nc12 : 0.0039
COC(=O)c1ccccc1NC(=S)N1CCOCC1 : 0.0401
CN(C)C(=O)c1ccccc1NC(=O)Cc1cccc2ccccc12 : 0.0498

Now look at this entry.
Please fill in: solubility kinetic reported for Cc1cccc(NC(=S)N2CCCN(c3ncccc3[N+](=O)[O-])CC2)c1 = 0.0394

---

Reported solubility kinetic values are given for each entry in this list.
# EXPERIMENTAL PARAMETERS: buffer; pH 7.4; 200.0 µM
Just the number please, in µg/mL, no unit attached.

// below: answered molecules
O=C(C1CCCC1)N1CCN(S(=O)(=O)c2cccc(Cl)c2Cl)CC1 : 27.4
COc1ccc(OC)c(C(=O)COC(=O)c2cccnc2SC)c1 : 4.2
COC1CCCN(Cc2nc(Cc3ccccc3F)no2)C1 (stereo unspecified) : 37.9

Please fill in: solubility kinetic reported for CC(=O)c1ccc(N2CCC(C)CC2)c(F)c1 = 6

Please fill in: solubility kinetic reported for CC1Oc2ccccc2N(CC(=O)Nc2ccc(F)cc2)C1=O (stereo unspecified) = 12.6

Please fill in: solubility kinetic reported for CNC(=S)N(CCO)Cc1cc2cc3c(cc2[nH]c1=O)OCO3 = 19.6

Please fill in: solubility kinetic reported for Cl.O=C(OCCN1CCOCC1)c1ccccc1 = 39.6

Please fill in: solubility kinetic reported for O=C(O)C1C2C=CC(C2)C1C(=O)NCCCN1CCCC1=O (stereo unspecified) = 44.2

---

# EXPERIMENTAL PARAMETERS: buffer; pH 7.4; 200.0 µM
MEASURE NAME: solubility kinetic

// below: answered compounds
CC(C)CNc1c2c(nc3ccccc13)CCC2.Cl : > 41.5 µg/mL
CC(=O)c1cn(C)c(=O)c2ccccc12 : > 30.2 µg/mL
OCCN1CCOCCOc2ccccc2OCCOCC1 : > 46.7 µg/mL

Please fill in: solubility kinetic reported for O=C(c1ccccc1)N1CCN(C(=O)c2ccc3c(c2)OCO3)CC1 = > 50.8 µg/mL

Please fill in: solubility kinetic reported for Cc1ccc(S(=O)(=O)CC(O)COc2ccccc2C#N)cc1 (stereo not given) = > 49.7 µg/mL

Please fill in: solubility kinetic reported for Cc1ccc(C)c(S(=O)(=O)NCCC(=O)N2CCCC(C(N)=O)C2)c1 (stereo not given) = > 55.1 µg/mL

Please fill in: solubility kinetic reported for COc1cc(CO)ccc1OCc1ccc(Cl)nc1 = > 42 µg/mL

Please fill in: solubility kinetic reported for Cc1cccc(C(=O)OC(C)CN2CCN(C)CC2)c1.Cl (stereo not given) = > 46.9 µg/mL

Please fill in: solubility kinetic reported for O=C(O)Cc1ccc2c(c1)N(S(=O)(=O)c1cccs1)CC(C(=O)O)O2 (stereo not given) = > 57.5 µg/mL

Please fill in: solubility kinetic reported for CCn1c(C)cc(C)c(C#N)c1=O = > 26.4 µg/mL

Please fill in: solubility kinetic reported for CC(C)CC(=O)Nc1ccc2c(c1)nc(CCN1CCCCC1)n2C = > 51.4 µg/mL

Please fill in: solubility kinetic reported for O=C(CS(=O)(=O)c1ccc(F)cc1)N1CCOCC1 = > 43.1 µg/mL

Please fill in: solubility kinetic reported for O=C(c1ccc(N2CCOCC2)c([N+](=O)[O-])c1)N1CCCCC1 = > 47.9 µg/mL

Please fill in: solubility kinetic reported for C#CC1(OC(=O)c2ccccc2)CC(C)N(C)CC1C.Cl (stereo not given) = > 46.2 µg/mL

Please fill in: solubility kinetic reported for CNC(=O)Nc1ccc(C(O)(C(=O)OC)C(F)(F)F)cc1 (stereo not given) = > 45.9 µg/mL

Please fill in: solubility kinetic reported for O=C(O)c1ccc(CNC(=O)c2ccc3c(c2)C(=O)N(Cc2cccnc2)C3=O)cc1 = > 62.3 µg/mL

The reported numbers originate from PubChem BioAssay AID1996.
